Target: ZFP SBS#801 (synthetic)
Sequence (chain, as listed by the source): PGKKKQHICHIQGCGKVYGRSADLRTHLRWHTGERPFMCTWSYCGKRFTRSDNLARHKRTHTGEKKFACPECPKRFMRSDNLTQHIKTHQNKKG
Test: EMSA
Settings: tags: MBP fusion
QUANTITY KIND: Kd (nM)

* AAGGAGTCGC (dsDNA) DNA 1: AAGGAGTCGC DNA 2: GCGACTCCTT | 0.85
